Target: NPP1 (Homo sapiens)
Sequence (P22413 98-925 limits assumed): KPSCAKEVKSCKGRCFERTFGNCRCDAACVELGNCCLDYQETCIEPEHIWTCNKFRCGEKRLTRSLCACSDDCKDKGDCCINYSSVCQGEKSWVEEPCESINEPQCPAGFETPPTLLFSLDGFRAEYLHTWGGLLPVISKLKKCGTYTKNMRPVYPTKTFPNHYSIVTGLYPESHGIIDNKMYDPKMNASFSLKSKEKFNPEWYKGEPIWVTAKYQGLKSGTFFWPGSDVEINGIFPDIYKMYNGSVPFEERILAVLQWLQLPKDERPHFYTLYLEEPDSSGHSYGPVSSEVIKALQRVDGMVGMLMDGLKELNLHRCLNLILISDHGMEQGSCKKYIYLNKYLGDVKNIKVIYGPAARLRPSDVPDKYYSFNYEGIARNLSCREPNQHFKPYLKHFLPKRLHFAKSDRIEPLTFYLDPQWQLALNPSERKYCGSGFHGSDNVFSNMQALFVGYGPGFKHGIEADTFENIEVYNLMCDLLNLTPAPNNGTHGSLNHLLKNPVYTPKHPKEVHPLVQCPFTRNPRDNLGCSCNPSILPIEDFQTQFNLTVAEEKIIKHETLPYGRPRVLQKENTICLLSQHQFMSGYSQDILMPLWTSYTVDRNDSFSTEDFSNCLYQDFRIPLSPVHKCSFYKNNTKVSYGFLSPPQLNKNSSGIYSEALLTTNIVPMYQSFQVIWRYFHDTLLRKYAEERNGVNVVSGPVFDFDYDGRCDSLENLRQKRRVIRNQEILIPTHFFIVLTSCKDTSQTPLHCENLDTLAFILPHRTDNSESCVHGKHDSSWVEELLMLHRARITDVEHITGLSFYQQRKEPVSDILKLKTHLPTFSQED
Test Readout: Ki

Hey, quick one: what's Ki for each of these?
1. CCCCNc1nc2c(NC)ncnc2n1[C@@H]1O[C@H](COP(=O)(O)OP(=O)(O)C(Br)(Br)P(=O)(O)O)[C@@H](O)[C@H]1O [Compound 33]
2. CCCCSc1nc2c(N)ncnc2n1[C@@H]1O[C@H](COP(=O)(O)OP(=O)(O)C(Br)(Br)P(=O)(O)O)[C@@H](O)[C@H]1O [Compound 31]
3. CCN(CC)c1ncnc2c1ncn2[C@@H]1O[C@H](COP(=O)(O)OP(=O)(O)C(Br)(Br)P(=O)(O)O)[C@@H](O)[C@H]1O [ARL67156, reference compound]

["7.68 µM", "5.17 µM", "4.41 µM"]
